Below: a set of entries, each annotated with reported growth.
- Tested on: NCI-H460 lung
- assayProcedure: NCI-60 one-dose screen, 48 h (100 = growth as untreated, 0 = no growth, -100 = all killed)
- assayContext: 10 µM unless noted
Compounds without any hit were thinned out: in the full panel of roughly 83,000, 20% have a hit.
Field format: number, assumed %, no unit text.

Field: example entries. Status: answers known.
For COc1ccc(-n2ncc3c4nc(OC)c(S(=O)(=O)c5ccccc5)cc4ccc32)cc1 the compound record lists growth as 78.9

Short answer for CCN(CC)c1ccc(/C=C(\C#N)c2cc3ccccc3[nH]2)cc1 : growth was 24.4

Sure, the documented growth for COC1(OC)C2(Cl)C=C(c3ccccc3)C1(Cl)C(Cl)=C2Cl (stereo unspecified) is 113

The reported value for CC1SC(c2ccc(Cl)cc2)N(CCc2cccs2)C1=O (stereo unspecified) in terms of growth is -24.4

***
Lab book: growth of CC1(C)N=C(N)N=C(N)N1c1cccc(OCCOc2cccc([N+](=O)[O-])c2)c1 noted as 19

Just so you know, measured growth for Cc1ccc2nc(NC(=O)CSC(=S)N3CCN(Cc4ccccc4)CC3)sc2c1 came out at -70.9

====

We begin with a simple list: items and their reported growth.
- Test system: T-47D breast
- assayProcedure: NCI-60 one-dose screen, 48 h (100 = growth as untreated, 0 = no growth, -100 = all killed)
- assayContext: 10 µM
About 83,000 compounds went through this panel and 20% of them were active in at least one assay; those are over-represented in the sample as a whole.
Could you give me the number in %? Just the number is fine.

Study these solved cases before continuing.
Please fill in: growth reported for CC(C)NCC(O)COc1ccc(CCOCC2CC2)cc1 (stereo not drawn) = 103

Reported growth for Cc1ccc2c(N/N=C\c3ccco3)cc(C)nc2n1 was 37.4

Given item O=C(O)C[C@H](O)C[C@H](O)/C=C/c1c(C2CC2)nc2ccccc2c1-c1ccc(F)cc1 , the value recorded as its growth is 95.9

Query Nc1ccccc1-c1n[nH]c(=O)[nH]c1=O yields growth of 114

Sample CC(=O)Nc1ccc(S(=O)(=O)N/N=C\c2ccc(Cl)c(Cl)c2)cc1 ; growth observed: 86.7

New cases:
growth recorded for this compound, COc1cc(CNCCN2C(=O)c3ccc4c5c(ccc(c35)C2=O)C(=O)N(CCNCc2cc(OC)c(OC)c(OC)c2)C4=O)cc(OC)c1OC , is -56.2

Just so you know, measured growth for Oc1ccccc1/C=N/Nc1nc2ccccc2s1 came out at 37.8

// growth value for O=c1oc2ccccc2cc1-c1csc(N/N=C/c2cc3ccccc3nc2Cl)n1 : 90.8

====

- Test system: HOP-62 NSCLC
- assayProcedure: NCI-60 one-dose screen, 48 h (100 = growth as untreated, 0 = no growth, -100 = all killed)
- assayContext: 10 µM unless noted
- Procedure: Growth inhibition of the HOP-62 human Non-Small Cell Lung tumor cell line is measured as a screen for anti-cancer activity. Cells are grown in 96 well plates and exposed to the test compound for 48 hours. Compounds are tested at a single concentration, which is 10^-5 M for most compounds. The reported endpoint is percent growth (GI% or GIPRCNT), where numbers from 0 - 100% represent growth inhibition, and numbers from -100% - 0 represent cell death. […]
Compounds without any hit were thinned out: in the full panel of roughly 83,000, 20% have a hit.
Label key: 1 means growth under 70%; -1 means growth of 70% or more.

Task: Please let me know if C=C(C)CCCC(C)CC#N (stereo not given) shows growth below 70%.
Output: -1

Further cases:
Task: Please check: growth for Cl.Fc1c[c-]c(-c2ccccn2)c(F)c1.[Pt].c1ccc([PH+](CC[PH+](c2ccccc2)c2ccccc2)c2ccccc2)cc1 , strictly under 70% or not?
Output: 1

Task: Is 70% strictly greater than the compound's reported growth? compound: O=C(N/N=C/c1ccc(F)cc1)c1[nH]c2ccc(I)cc2c1-c1ccccc1
Output: 1

Task: Does the reported growth of COc1ccc(OC)c(C2C(C#N)=C(N)Oc3cc(O)ccc32)c1 (stereo not given) stay below 70%?
Output: -1

Task: Dear reviewer, please state whether Cc1ccc2c(c1)c(Sc1ccc(C(=O)NO)cc1)c1n2CN(C)CC1 has growth strictly beneath 70%.
Output: 1

Task: Is growth of CC1(C)CC(=O)C2=C(C1)Nc1cc3c(cc1C2c1ccc(F)cc1)OCO3 (stereo not given) strictly below 70%?
Output: -1

Task: Quick check: growth of COc1ccc(/C=C(\C#N)c2ccc(OC)cc2)cc1 under 70%?
Output: 1

Task: For this compound, is growth lower than 70%? COc1nc2c(cc1S(=O)(=O)c1ccccc1)CCc1c-2cnn1-c1cccc(Cl)c1
Output: -1

Task: Quick check: does O=C(Nc1nc2ccccc2[nH]1)C(=O)Nc1nc2ccccc2[nH]1 have growth under 70%?
Output: -1

====

- Tested on: OVCAR-5 ovarian
- assayProcedure: NCI-60 one-dose screen, 48 h (100 = growth as untreated, 0 = no growth, -100 = all killed)
- assayContext: 10 µM unless noted
This is part of a sample that, as a whole, favours compounds with a hit. Of some 83,000 tested, about 20% had one in any assay.
assayEndpoint: growth (%)
All answers are understood in %, so give the number only.

Summary for this molecule, COC(=O)[C@H]1CCCN1C(=O)[C@H]1CCCN1C(=O)[C@@H](Cc1c[nH]c2ccccc12)NC(=S)Nc1cc(C(F)(F)F)cc(C(F)(F)F)c1 : growth is 76.4

Others:
// field: growth; key: Cc1nc2cc(Nc3nc(NCCO)nc(Nc4ccc(F)cc4)n3)ccc2n1Cc1ccccc1 ; value = 114

So, N#Cc1c(-c2cccc(F)c2)cc(-c2ccc(Br)s2)[nH]c1=O ? Its growth was 102

Entry COC(=O)CCC(=O)c1ccccc1 ; growth = 98.4

Entry O=S(=O)(/N=C1C=C/C(=N\S(=O)(=O)c2ccccc2)c2ccccc2\1)c1ccccc1 — recorded growth = 114

// growth value for COc1ccc(Sc2ccc3[nH]c(=O)nc(N)c3c2)cc1 : 100

Reported growth of C=CC(=O)N1CC2(CC(n3nc(-c4ccc(Oc5ccccc5)cc4)c4c(N)ncnc43)C2)C1 : 54.8

====

- Test system: BT-549 breast
- assayProcedure: NCI-60 one-dose screen, 48 h
- assayContext: 10 µM unless noted
This is part of a sample that, as a whole, favours compounds with a hit. Of some 83,000 tested, about 20% had one in any assay. Activity calls are given as the source filed them. Rule for the calls: active = growth percent below 10; inactive = the rest.
Outcomes you can answer with include only these: 1 for active, 0 for inactive

Take a look at these entries with their results.
Task: Could you check what this test reported for O=C(COc1cccc(/C=C2\COc3ccccc3C2=O)c1)c1ccccc1 ?
Output: 0

Task: Could you please tell me the result logged for COc1cc(/C=N/NC(=O)c2cnn3c2NC(c2ccccc2)C3)cc(OC)c1OC (stereo not drawn) in this assay?
Output: 0

Task: Recorded test outcome, item O=c1nc(NO)[nH]c(=O)n1Cc1ccccc1
Output: 0

***
Task: Dear all, I need the recorded test outcome for O=[N+]([O-])c1cc2c(cc1Br)-c1ccccc1C2 , thank you.
Output: 0

Task: Hi team, can someone confirm the assay call for O=C1NC(=O)C(CSc2ccccc2)(c2ccccc2)N1 (stereo not drawn) ?
Output: 0

Task: Field: outcome | Entry: COc1ccc(OC2=CC(=O)c3ccc(C)nc3C2=O)cc1
Output: 0

Task: Test call for this compound, please: CCOC(=O)c1c(Cl)c2c(n1Cc1ccc(OC)cc1)-c1oncc1CCC2
Output: 0

Task: What was the test verdict on Cc1nc2cc(Nc3nc(Nc4ccc(F)cc4)nc(-c4ccc(Cl)cc4)n3)ccc2n1Cc1ccccc1 ?
Output: 0

Task: Assay result, entry COCCOC1=C(Cl)C(=O)c2ccccc2C1=O — outcome?
Output: 1

Task: What outcome does the record of this test show for COc1cc(-c2nc(SC(C)C)nc(Nc3cccc(C)c3)c2C#N)cc(OC)c1OC ?
Output: 0

Task: Test call, this compound: Cc1ccc2c(c1)c(Sc1ccc(C(=O)NO)cc1)c1n2CN(C)CC1
Output: 0

Task: GET /call?item= O=S(=O)(OCCO)c1ccccc1 returns the recorded outcome of this test.
Output: 0

Task: Hey, what did the test say about CN1CCc2c(c3ccccc3c3ccccc23)C1 ?
Output: 0

====

- Test system: T-47D breast
- assayProcedure: NCI-60 one-dose screen, 48 h (100 = growth as untreated, 0 = no growth, -100 = all killed)
- assayContext: 10 µM
- Procedure: Growth inhibition of the T-47D human tumor cell line is measured as a screen for anti-cancer activity. Cells are grown in 96 well plates and exposed to the test compound for 48 hours. Compounds are tested at a single concentration, which is 10^-5 M for most compounds. The reported endpoint is percent growth (GI% or GIPRCNT), where numbers from 0 - 100% represent growth inhibition, and numbers from -100% - 0 represent cell death. For example, a value of 40 represents 60% growth inhibition. […]
About 83,000 compounds went through this panel and 20% of them were active in at least one assay; those are over-represented in the sample as a whole.
assayEndpoint: growth (%)
Give the value in % but do not write % after it.

Example entries and their recorded answers appear below.
Field growth (system: T-47D breast) for entry CCCC1=NNC(=O)C1 = 101

Record Clc1ccc(C2=Nc3cccc4cccc(c34)N2)cc1Cl ; system T-47D breast; growth = 42.2

Recorded growth for Cc1c(NCC(=O)Nc2nc3ccccc3[nH]2)c(=O)n(-c2ccccc2)n1C on T-47D breast was 97.8

# CCN1C(=O)C2(Nc3ccccc3S2)c2cc(C)ccc21 (stereo not drawn) with T-47D breast: growth is 93.5

The reported growth value, T-47D breast, for O=[N+]([O-])c1cc2c(cc1Br)C1C(C3C2C(Cl)(Cl)C(Cl)=C(Cl)C3(Cl)Cl)C(Cl)(Cl)C(Cl)=C(Cl)C1(Cl)Cl (stereo not drawn) reads 90.8

Others:
Sample COC(=O)[C@H]1CCCN1C(=O)[C@H]1CCCN1C(=O)[C@@H](Cc1c[nH]c2ccccc12)NC(=S)Nc1cc(C(F)(F)F)cc(C(F)(F)F)c1 , system: T-47D breast. Its growth is 50.2

Log: T-47D breast, molecule COc1ccc(-c2nc(Nc3ccc(F)cc3)nc(Nc3ccc4c(c3)nc(C)n4Cc3ccccc3)n2)cc1 , growth = 11.5

Test item CCC(C)[C@H]1O[C@]2(CC[C@@H]1C)C[C@@H]1C[C@@H](C/C=C(\C)[C@@H](OC3C[C@H](OC)C(O[C@H]4C[C@H](OC)[C@@H](O)[C@H](C)O4)[C@H](C)O3)[C@@H](C)/C=C/C=C3\CO[C@@H]4[C@H](O)C(C)=C[C@@H](C(=O)O1)[C@]34O)O2 (stereo partly drawn) ; T-47D breast; reported growth was 18.1

Measured growth for this entry COc1nc2c(cc1S(=O)(=O)c1ccccc1)CCc1c-2cnn1-c1ccccc1 on T-47D breast: 40.4

For the molecule COc1ccc(-c2c3c(N)c4c(nc3nc3c2c(C)nn3-c2ccccc2)CCCCC4)cc1 , the measured growth on T-47D breast was 61.2

Param item: COc1cc(/C=C2\C(=O)N(c3c(Cl)cccc3Cl)c3ccccc32)cc(OC)c1O ; param system: T-47D breast; output growth: 51.8

// returns growth for O=C1/C(=C/c2ccccc2F)CNC/C1=C\c1ccccc1F with T-47D breast; value = 9.26

The molecule O=c1nc(NO)[nH]c(=O)n1Cc1ccccc1 on T-47D breast: growth was 92.8

Sample CC(=O)OC[C@]1(C)C=C2C(=O)[C@](C)(O)C3(CC3)C(C)=C2[C@H]1OC(C)=O , system: T-47D breast. Its growth is 73.6

Test item Cc1ccc(C(=O)O[C@H](C(=O)O)[C@H](OC(=O)c2ccc(C)cc2)C(=O)O)cc1 ; T-47D breast; reported growth was 93.6

The observed growth for O=C1CN2CCC1C/C2=C\c1ccnc2c(Cl)cccc12 (stereo not drawn) when tested with T-47D breast stands at 93.6
